Every entry's value here was drawn from patent US20260327243A1.

target: KRAS^G12C (Homo sapiens, UniProt P01116, C118A/G12C); assay: Coupled Nucleotide Exchange Assay; settings: GDP-bound KRAS (aa 1-169) G12C/C118A; 2 h compound pre-incubation; SOS-mediated exchange, 30 min; cRAF binding (AlphaLISA)
Sequence (P01116 1-169 isoform P01116-2 G12C/C118A): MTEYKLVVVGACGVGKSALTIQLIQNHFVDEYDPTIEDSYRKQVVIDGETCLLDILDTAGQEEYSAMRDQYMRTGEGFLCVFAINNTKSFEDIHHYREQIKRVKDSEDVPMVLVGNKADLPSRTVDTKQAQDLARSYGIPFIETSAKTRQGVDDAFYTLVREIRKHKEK
experimental_endpoint: IC50 (nM)
Numbers only, in nM.

>>> assay_result("C=CC(=O)N1CCN([C@@H]2CN(c3cc(N4CCC5(C[C@@H]4C)OCC=C5C)nc(C(F)F)n3)[C@@H]2C)CC1 (stereo partly drawn)")
6570
>>> assay_result("C=CC(=O)N1CCN([C@@H]2CN(c3cc(N4CCC5(C=CCOC5)CC4)nc(C(F)(F)F)n3)[C@@H]2C)CC1")
3860
>>> assay_result("C=CC(=O)N1CCN(C2CN(c3cc(N4CCC5(CCCCO5)CC4)nc(C(F)(F)F)c3C#N)C2)CC1")
3580
>>> assay_result("C=CC(=O)N1CCN([C@@H]2CN(c3cc(N4CCC5(CC4)OCc4nccc(C)c45)nc(C(F)F)n3)[C@@H]2C)CC1")
353
>>> assay_result("C=CC(=O)N1CCN([C@@H]2CN(c3cc(N4CC[C@]5(C[C@H]4C)OCC(CF)n4ncc(C)c45)nc(C(F)F)n3)[C@@H]2C)CC1 (stereo partly drawn)")
176
>>> assay_result("C=CC(=O)N1CCN(C2CN(c3cc(N4CCC5(CC4)COC5)nc(C(F)(F)F)c3C#N)C2)CC1")
4400

Batch: IC50 for all items listed.
1. C=CC(=O)N1CCN([C@@H]2CN(c3cc(N4CC[C@]5(C[C@H]4C)OC[C@H](CO)n4ncc(C)c45)nc(C(F)(F)F)n3)[C@@H]2C)CC1 (single isomer, unassigned)
2. C=CC(=O)N1CCN([C@@H]2CN(c3cc(N4CCC5(CC4)OCC=C5C)nc(C(F)(F)F)c3C#N)[C@@H]2C)CC1
3. C=CC(=O)N1CCN(C2CN(c3cc(N4CCC5(CC4)c4ccccc4CN5C)nc(C(F)(F)F)c3C#N)C2)CC1
4. C=CC(=O)N1CCN([C@@H]2CN(c3cc(N4CCC5(CC4)OCC=C5C)nc(C(F)F)c3C)[C@@H]2C)CC1
5. C=CC(=O)N1CCN(C2CN(c3cc(N4CCC5(CC4)CC(Br)=NO5)nc(C(F)(F)F)c3C#N)C2)CC1
6. C=CC(=O)N1CCN(C2CN(c3cc(N4CCC5(CCc6ccccc65)CC4)nc(C(F)(F)F)n3)C2)CC1
7. C=CC(=O)N1CCN([C@@H]2CN(c3cc(N4CCC5(C=CCC5)CC4)nc(C(F)(F)F)n3)[C@@H]2C)CC1
8. C=CC(=O)N1CCN(C2CN(c3cc(N4CCC5(CC4)OC(=O)NC54CCC4)nc(C(F)(F)F)c3C#N)C2)CC1

**A:**
1. 87
2. 161
3. 498
4. 288
5. 828
6. 8240
7. 4300
8. 2450

**Q:** Entry under review: C=CC(=O)N1CCN(C2CN(c3cc(N4CCC5(CC4)CC(C)(O)CO5)nc(C(F)(F)F)c3C#N)C2)CC1 (stereo not drawn) . Reported IC50?
**A:** 8680
